Data origin, for the record: patent US20230272055A1

Please go through the items and note down their EC50.
target: T1, human mutCALR on BaF3 cells stably expressing human MPL and human mutCALR (MPL-mutCALR cells) (human)
T1 construct: also called mutant calreticulin
T1 chain: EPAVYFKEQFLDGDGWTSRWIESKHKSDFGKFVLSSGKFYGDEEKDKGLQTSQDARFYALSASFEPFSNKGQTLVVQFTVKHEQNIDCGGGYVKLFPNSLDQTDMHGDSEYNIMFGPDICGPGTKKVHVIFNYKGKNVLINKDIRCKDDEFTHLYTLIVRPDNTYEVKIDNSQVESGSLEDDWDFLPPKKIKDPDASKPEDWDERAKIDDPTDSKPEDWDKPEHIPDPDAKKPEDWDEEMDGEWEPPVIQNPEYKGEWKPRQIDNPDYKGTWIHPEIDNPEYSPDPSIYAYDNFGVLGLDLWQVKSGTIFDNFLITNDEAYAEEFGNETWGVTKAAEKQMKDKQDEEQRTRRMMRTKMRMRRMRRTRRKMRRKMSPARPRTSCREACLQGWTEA
assay_overview: flow cytometry, BaF3 MPL-mutCALR cells
Description: On the day of the assay, cells were washed and resuspended in assay buffer. Approximately 200,000 cells/well were added to 96-well plates and stained with the indicated concentration of antibodies for 30 minutes on ice. Cells were then washed and stained with goat anti-human secondary conjugated to R-phycoerythrin (R-PE) (Jackson Immuno Research Laboratories) for 30 minutes on ice. The cells were then washed and analyzed by flow cytometry.
Only the number, expressed in ng/mL, is required.

Kindly note the recorded EC50 for anti-mutCALR antibody clone 74 (antibody, human IgG1, lambda, N297A, V domains shown) VH: EVQLVQSGAEVKKPGASVKVSCKVSGYTLTELSMQWVRQAPGKGLEWMGGFDPDDAETMYAEKFQGRLTVTEDTSTDTVYMELSSLRSEDTAVYFCATSPGYDFFDYWGQGTLVTVSS VL: SYVLTQPPSVSVAPGKTARITCTGTSSDVGGYNYVSWYQQKPGQAPVLVVYEVSNRPSGIPERFSGSNSGNTATLTISRVEAGDEADYYCQVWDSSNDLLIFGGGTKLTVLG , which is 2.2

Kindly note the recorded EC50 for anti-mutCALR antibody clone 133 (antibody, human IgG1, lambda, N297A, V domains shown) VH: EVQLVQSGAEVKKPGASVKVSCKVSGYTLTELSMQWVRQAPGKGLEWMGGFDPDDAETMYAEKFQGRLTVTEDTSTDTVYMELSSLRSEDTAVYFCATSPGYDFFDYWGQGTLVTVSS VL: SYELTQPPSVSVAPGKTARITCGGDNIGSKSVHWYQQKPGQAPVLVVYDDSDRPSGIPERFSGSNSGNTATLTINRVEAGDEADYYCQVWDSSNDLLIFGGGTKLTVLG , which is 1.7
